Target: T1, recombinant human IL-23 (human, UniProt Q9NPF7 20-189; P29460 23-328)
T1 sequence 1: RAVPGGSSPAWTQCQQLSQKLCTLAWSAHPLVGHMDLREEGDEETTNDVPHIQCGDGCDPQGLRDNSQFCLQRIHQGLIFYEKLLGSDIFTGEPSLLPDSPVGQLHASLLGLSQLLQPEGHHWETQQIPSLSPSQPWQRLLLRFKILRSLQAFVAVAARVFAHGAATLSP
T1 sequence 2: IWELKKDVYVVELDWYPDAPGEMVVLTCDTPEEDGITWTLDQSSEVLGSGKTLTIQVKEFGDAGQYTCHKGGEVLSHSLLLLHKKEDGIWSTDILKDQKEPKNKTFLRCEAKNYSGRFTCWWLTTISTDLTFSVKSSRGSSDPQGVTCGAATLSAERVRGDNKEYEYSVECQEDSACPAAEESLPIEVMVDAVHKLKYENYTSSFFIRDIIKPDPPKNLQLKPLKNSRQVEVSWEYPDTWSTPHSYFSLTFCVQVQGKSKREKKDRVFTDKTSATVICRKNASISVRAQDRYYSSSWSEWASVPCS
Test: cell-based or functional assay
Below is a list of entries, each paired with its recorded IC50 (pM), NK cell assay (IFNγ) value.
Give the number; pM is assumed, so skip it.

Antibody M (antibody, V domains shown) VH: EVQLVESGGGLVQPGGSLRLSCAASGFTFSSYSMNWVRQAPGKGLEWVSYISSRSSTIYIADSVKGRFTISRDNAKNSLYLQMNSLRDEDTAVYYCARRIAAAGGFHYYYALDVWGQGTTVTVSS VL: QPVLTQPPSASASLGASVTLTCTLNSGYSDYKVDWYQQRPGKGPRFVMRVGTGGIVGSKGDGIPDRFSVLGSGLNRYLTIKNIQEEDESDYHCGADHGSGSNFVYVFGTGTKVTVL
8
Antibody C (antibody, V domains shown, also called VH10/VL10) VH: QVQLQESGPGLVKPSQTLSLTCTVSGGSINSGGYYWSWIRQHPGKGLEWIGYIYYSGSSYYNPSLKSRVTISVDTSQNQFSLKLSSVTAADTAVYYCARDRGHYYGMDVWGQGTTVTVSS VL: DIQMTQSPSSVSASVGDRVTITCRASQGSSSWFAWYQQKPGKAPKLLIYAASSLQSGVPSRFSGSGSGTDFTLTISSLQPEDFATYYCQQANSFPFTFGPGTKVDIK
32

We now examine a further binder.
In plain terms, Antibody I (antibody, V domains shown) VH: QVQLQESGPGLVKPSETLSLTCTVSGGSISTYYWSWIRQPAGKGLEWIGLIYTSGSTNYNPSLKSRVTMSLDTSKNQFSLRLTSVTAADTAVYYCARDRGYYYGVDVWGQGTTVTVSS VL: DIQLTPSPSSVSASVGDRVTITCRASQGIAGWLAWYQQKPGKAPKLLIYAASSLQSGVPSRFSGSGSGTDFTLTISSLQPEDFATYYCQQADSFPPTFGGGTKVEIK has a documented IC50 (pM), NK cell assay (IFNγ) of 69
